target: recombinant human NF-kappaB-inducing kinase (NIK/MAP3K14) (Homo sapiens); experiment: Biological Assay B: inhibition of auto-phosphorylation of recombinant human NIK/MAP3K14 (AlphaScreen), performed at 2 locations; type: biochemical; settings: location 2; AlphaScreen auto-phosphorylation; averaged values; read-out: Assay B location 2 IC50
Sequence (Q99558 whole entry): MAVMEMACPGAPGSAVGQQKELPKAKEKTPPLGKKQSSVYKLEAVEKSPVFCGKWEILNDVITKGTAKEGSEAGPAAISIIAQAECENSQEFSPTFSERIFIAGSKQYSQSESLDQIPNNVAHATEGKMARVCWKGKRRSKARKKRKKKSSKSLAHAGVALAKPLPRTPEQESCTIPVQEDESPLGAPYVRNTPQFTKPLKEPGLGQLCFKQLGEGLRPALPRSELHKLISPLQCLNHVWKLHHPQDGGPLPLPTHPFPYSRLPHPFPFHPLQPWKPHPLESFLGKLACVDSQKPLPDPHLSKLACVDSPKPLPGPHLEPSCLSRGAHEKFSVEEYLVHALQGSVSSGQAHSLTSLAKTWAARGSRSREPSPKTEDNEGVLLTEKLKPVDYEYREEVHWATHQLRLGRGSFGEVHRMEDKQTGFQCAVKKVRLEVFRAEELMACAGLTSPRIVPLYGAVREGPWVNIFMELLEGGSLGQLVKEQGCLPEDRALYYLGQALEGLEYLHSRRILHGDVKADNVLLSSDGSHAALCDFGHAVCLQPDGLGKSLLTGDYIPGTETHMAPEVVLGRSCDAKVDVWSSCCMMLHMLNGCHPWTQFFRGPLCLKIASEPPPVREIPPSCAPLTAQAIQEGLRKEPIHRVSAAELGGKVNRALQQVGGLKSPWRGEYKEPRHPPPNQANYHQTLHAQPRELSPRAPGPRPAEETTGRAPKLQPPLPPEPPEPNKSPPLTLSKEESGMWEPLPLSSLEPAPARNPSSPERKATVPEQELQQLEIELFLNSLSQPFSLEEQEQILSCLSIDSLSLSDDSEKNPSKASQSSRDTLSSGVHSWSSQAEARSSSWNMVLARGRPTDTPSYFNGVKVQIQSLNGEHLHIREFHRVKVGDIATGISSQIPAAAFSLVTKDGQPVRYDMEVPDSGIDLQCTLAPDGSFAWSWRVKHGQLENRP
Measured metric: pIC50
Note on pIC50: it is the negative log10 of concentration, concentration in mol/L.

Form field - read-out: pIC50; system: recombinant human NF-kappaB-inducing kinase (NIK/MAP3K14) (Homo sapiens); submitted item: COc1cc(N2CCOCC2)ccc1Nc1nccc(-c2cnc3c(c2)C(C)(CO)CN3)n1 (stereo not shown)
7.91

Please state recorded pIC50 (tested on recombinant human NF-kappaB-inducing kinase (NIK/MAP3K14) (Homo sapiens)) of CC1(CO)CNc2ncc(-c3ccnc(Nc4ccccc4F)n3)cc21 (stereo not shown)
7.49

Item COc1cc(C(=O)N2CCC(OC)CC2)ccc1Nc1nccc(-c2cnc3c(c2)C(C)(CC#N)CN3)n1 (stereo not shown) with recombinant human NF-kappaB-inducing kinase (NIK/MAP3K14) (Homo sapiens) - pIC50?
8.32

Give recombinant human NF-kappaB-inducing kinase (NIK/MAP3K14) (Homo sapiens) pIC50 for COc1ccc(NC(C)=O)cc1Nc1nccc(-c2cnc3c(c2)C(C)(CO)CN3)n1 (stereo not shown)
7.98

Tell me reported pIC50 for CCC1(CC#N)CNc2ncc(-c3ccnc(Nc4ccc(C(=O)NC5CCOCC5)cc4OC)n3)cc21 (stereo not shown) , tested with recombinant human NF-kappaB-inducing kinase (NIK/MAP3K14) (Homo sapiens).
7.72

Which measured pIC50 belongs to COc1cc(C2CCN(C)CC2)c(Cl)cc1Nc1nccc(-c2cnc3c(c2)C(C)(CO)CN3)n1 (stereo not shown) , tested on recombinant human NF-kappaB-inducing kinase (NIK/MAP3K14) (Homo sapiens)?
8.77

recombinant human NF-kappaB-inducing kinase (NIK/MAP3K14) (Homo sapiens) / pIC50 / CC1(CO)CNc2ncc(-c3ccnc(Nc4cc(C#N)ccc4Cl)n3)cc21 (stereo not shown) : value?
8.29

Field: pIC50 (recombinant human NF-kappaB-inducing kinase (NIK/MAP3K14) (Homo sapiens)). Entry: Cc1cc(N2CCOCC2)c(C#N)cc1Nc1nccc(-c2cnc3c(c2)C(C)(CO)CN3)n1 (single isomer, unassigned) [Compound 264]
8.22

Please state recorded pIC50 (tested on recombinant human NF-kappaB-inducing kinase (NIK/MAP3K14) (Homo sapiens)) of COc1cc(N2CCN(C)CC2)c(Cl)cc1Nc1nccc(-c2cnc3c(c2)C(C)(CO)CN3)n1 (single isomer, unassigned) [Compound 303]
8.32

Notebook entry, recombinant human NF-kappaB-inducing kinase (NIK/MAP3K14) (Homo sapiens) assay: pIC50 of COc1cc(N2CCC(OC)C2)c(Cl)cc1Nc1nccc(-c2cnc3c(c2)C(C)(CO)CN3)n1 (stereo not shown) = ?
8.74

Look up pIC50 with recombinant human NF-kappaB-inducing kinase (NIK/MAP3K14) (Homo sapiens) for this molecule: Cc1cc(N2CCOCC2)c(Cl)cc1Nc1nccc(-c2cnc3c(c2)C(C)(CO)CN3)n1 (stereo not shown) [Compound 361]
8.43

// fetch recombinant human NF-kappaB-inducing kinase (NIK/MAP3K14) (Homo sapiens) pIC50 for COc1cc(-c2cncn2C)ccc1Nc1nccc(-c2cnc3c(c2)C(C)(CO)CN3)n1 (stereo not shown)
7.56
